The measurements presented in this section are drawn from PubChem BioAssay.

Reported luciferase signal values follow for various compounds
- ASSAY SYSTEM: Mitogen-activated protein kinase 7 (Homo sapiens)
- METHOD NOTES: ERK5 transactivation activators in reporter cells, primary screen, cell-based, HTS (AID 1508626);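 also: luciferase driven by Gal4-ERK5 fusion binding five Gal4 sites before minimal TATA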
- CONDITION SUMMARY: HeLa Gal4-ERK5 transactivation, 18 h, at 5 µM, stronger effect = higher value
Activity calls are given as the source filed them.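 The calls were made as follows: active = luciferase signal above three times the same-plate solvent-only control wells; inactive = the rest.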
RECORDED ENDPOINT: luciferase signal

# COMPOUND, RECORDED ENDPOINT, TEST RESULT
records = [
    ("COc1cc2c(cc1-c1cc3cc4ccoc4cc3oc1=O)OCO2", "luciferase signal", "44 AU (inactive)"),
    ("CC(=O)OC1CCC2(C)C(CCC3C2CCC2(C)C(C4=CC(=O)OC4)C(OC(C)=O)CC32O)C1 (stereo unspecified)", "luciferase signal", "16 AU (inactive)"),
    ("COc1ccc2c(c1)[nH]c1c(C)nccc12", "luciferase signal", "124 AU (inactive)"),
    ("CC(=O)O[C@H]1[C@H]2[C@@H](OC(=O)Cc3ccccc3)[C@@H](C)C[C@]2(OC(C)=O)C(=O)/C(C)=C/[C@@H]2[C@H](CC[C@@]13CO3)C2(C)C", "luciferase signal", "56 AU (inactive)"),
    ("C[C@H]1CC[C@]2(NC1)O[C@H]1C[C@H]3[C@@H]4CC[C@H]5C[C@@H](O)CC[C@]5(C)[C@H]4CC[C@]3(C)[C@H]1[C@@H]2C", "luciferase signal", "104 AU (inactive)"),
    ("C[C@@H]1O[C@@H](O[C@H]2CC[C@]3(C=O)[C@H]4CC[C@]5(C)[C@@H](C6=CC(=O)OC6)CC[C@]5(O)[C@@H]4CC[C@]3(O)C2)[C@H](O)[C@H](O)[C@H]1O", "luciferase signal", "4 AU (inactive)"),
    ("O=c1ccc2cc(O[C@@H]3OC(CO)[C@@H](O)[C@@H](O)C3O)c(O)cc2o1 (stereo partly specified)", "luciferase signal", "48 AU (inactive)"),
    ("COc1cc(OC)c(OC)cc1C=O", "luciferase signal", "156 AU (inactive)"),
    ("CN(C)C(=S)SSC(=S)N(C)C", "luciferase signal", "64 AU (inactive)"),
    ("Clc1ccc(CO/N=C(\\Cn2ccnc2)c2ccc(Cl)cc2Cl)c(Cl)c1", "luciferase signal", "52 AU (inactive)"),
    ("CNC(C)(C)Cc1ccccc1", "luciferase signal", "56 AU (inactive)"),
    ("C[C@H](N)[C@H](O)c1ccc(O)c(O)c1", "luciferase signal", "16 AU (inactive)"),
    ("O=C(O)CC[N+](=O)[O-]", "luciferase signal", "152 AU (inactive)"),
    ("CC1=CCCC2C1(C)CCC(C)C2(C)CC/C(C)=C/C[n+]1cn(C)c2c(N)ncnc21 (stereo unspecified)", "luciferase signal", "64 AU (inactive)"),
    ("CCOC(=O)CC(SP(=S)(OC)OC)C(=O)OCC (stereo unspecified)", "luciferase signal", "52 AU (inactive)"),
    ("CCNc1nc(Cl)nc(NC(C)C)n1", "luciferase signal", "36 AU (inactive)"),
    ("O=C1C=CC(=O)c2c(O)cccc21", "luciferase signal", "52 AU (inactive)"),
    ("O=C1CCO1", "luciferase signal", "100 AU (inactive)"),
    ("CCOP(=S)(OCC)Oc1ccc2c(C)c(Cl)c(=O)oc2c1", "luciferase signal", "72 AU (inactive)"),
    ("CN[C@@H]1[C@@H](O)[C@@H](O[C@@H]2[C@@H](O)[C@H](O[C@H]3O[C@H]([C@@H](C)O)[C@@H](O)[C@H](O)[C@H]3N)[C@@H](N)C[C@H]2N)OC[C@]1(C)O", "luciferase signal", "52 AU (inactive)"),
    ("O=P1(NCCCl)OCCCN1CCCl (stereo unspecified)", "luciferase signal", "44 AU (inactive)"),
    ("CNNC", "luciferase signal", "32 AU (inactive)"),
    ("C=CCc1cc(OC)c2c(c1OC)OCO2", "luciferase signal", "32 AU (inactive)"),
    ("Oc1c(Cl)c(Cl)c(Cl)c(Cl)c1Cl", "luciferase signal", "480 AU (active)"),
    ("C[C@H]1O[C@H](OC2[C@@H](O)[C@@H](O)C(O)[C@H](O)[C@H]2O)[C@@H](N)C[C@@H]1N=C(N)C(=O)O (stereo partly specified)", "luciferase signal", "128 AU (inactive)"),
    ("CC(C)=CCCC1(C)C=Cc2c(O)c3c(c(CC=C(C)C)c2O1)OC12C(=CC4CC1C(C)(C)OC2(C/C=C(/C)C(=O)O)C4O)C3=O (stereo unspecified)", "luciferase signal", "88 AU (inactive)"),
    ("Cc1cc(OC(=O)N2CCCCC2)c(C(C)C)cc1[N+](C)(C)C", "luciferase signal", "48 AU (inactive)"),
    ("O=C(NC(=O)c1ccccc1Cl)Nc1ccc(OC(F)(F)F)cc1", "luciferase signal", "68 AU (inactive)"),
    ("CC1(C)C(=O)[C@@H]2O[C@@H]2[C@@]2(C)C1C[C@@H](O)[C@]1(C)C2CC[C@@]2(C)[C@H](c3ccoc3)OC(=O)C3OC321 (stereo partly specified)", "luciferase signal", "24 AU (inactive)"),
    ("CCCCCCCCCCCCCCCC[n+]1ccccc1", "luciferase signal", "96 AU (inactive)"),
    ("c1ccc2nc(N3CCNCC3)ccc2c1", "luciferase signal", "28 AU (inactive)"),
    ("COC(=O)[C@@H]1C[C@H](OC(C)=O)C(=O)[C@H]2[C@@]1(C)CC[C@H]1C(=O)O[C@H](c3ccoc3)C[C@]21C", "luciferase signal", "52 AU (inactive)"),
    ("CC(=O)OC1C[C@@]2(C)[C@H](c3ccoc3)C[C@H]3O[C@]32[C@]2(C)C(=O)C(O)=C3C(C)(C)C(=O)C=C[C@]3(C)C12 (stereo partly specified)", "luciferase signal", "12 AU (inactive)"),
    ("O=[N+]([O-])O[C@H]1CO[C@H]2[C@@H]1OC[C@H]2O[N+](=O)[O-]", "luciferase signal", "164 AU (inactive)"),
    ("CC(C)CCCC1(C)C=Cc2c(O)c3c(c(CCC(C)C)c2O1)OC12C(CC4CC1C(C)(C)OC2(CCC(C)C(=O)O)C4O)C3=O (stereo unspecified)", "luciferase signal", "76 AU (inactive)"),
    ("COc1cccc(C=O)c1OC", "luciferase signal", "60 AU (inactive)"),
    ("N#Cc1c(Cl)cccc1Cl", "luciferase signal", "52 AU (inactive)"),
    ("CC(C)c1cccc(C(C)C)c1O", "luciferase signal", "40 AU (inactive)"),
    ("CC(=O)O[C@@H]1CC2C(C)(C)[C@H](O)C=C[C@]2(C)C2CC[C@]3(C)C(=CC(=O)O[C@H]3c3ccoc3)[C@@]21C (stereo partly specified)", "luciferase signal", "120 AU (inactive)"),
    ("Cc1cccc(C)c1NC1=NCCCS1", "luciferase signal", "36 AU (inactive)"),
    ("C=C[C@H]1CN2CC[C@H]1C[C@H]2[C@H](O)c1ccnc2ccccc12", "luciferase signal", "48 AU (inactive)"),
]

----------
- METHOD NOTES: suppressors of polyglutamine aggregation in yeast, 75Q-TubH (AID 1616)
- CONDITION SUMMARY: S. cerevisiae 75Q-TubH polyglutamine aggregation suppression; stronger effect = higher value
Would you please tag the item True when its aggregation suppression score is 0.6 or above, and False when it is below?

# COMPOUND, CLASS LABEL
measured = [
    ("O=c1ccc2cc(O[C@H]3O[C@H](CO)[C@@H](O)[C@H](O)[C@H]3O)c(O)cc2o1", "True"),
    ("CCCCCc1cc(O)c2c(c1)OC(C)(C)C1CC=C(C)CC21 (stereo not drawn)", "False"),
    ("C=C(C)[C@H]1Cc2c(ccc3c2O[C@@H]2COc4cc(OC)c(OC)cc4[C@@H]2C3=O)O1", "True"),
    ("C[n+]1cc2c3c(ccc2c2ccc4cc5c(cc4c21)OCO5)OCO3", "False"),
    ("CC[C@@H]1/C=C/C=C/C[C@H](C)[C@@H](O)[C@](C)(O)C(=O)[C@H](C)[C@@H](O)[C@H](C)C(=O)[C@H](C)[C@@H](O)[C@H](C)/C=C/C(=O)O[C@H]2[C@@H](C)[C@@H](CC1)O[C@@]1(CC[C@@H](C)[C@@H](C[C@H](C)O)O1)[C@@H]2C", "False"),
    ("CC[N+]1(C)CCCC(OC(=O)C(O)(c2ccccc2)c2ccccc2)C1 (stereo not drawn)", "True"),
    ("NCC(O)c1ccc(O)cc1 (stereo not drawn)", "True"),
    ("CNc1ccc2oc(C[C@@H]3OC4(CC[C@@H]3C)O[C@H](C(C)C(=O)c3ccc[nH]3)[C@H](C)C[C@H]4C)nc2c1C(=O)O (stereo partly drawn)", "False"),
]
